B1: Azoarcus group I ribozyme (parent)
chain: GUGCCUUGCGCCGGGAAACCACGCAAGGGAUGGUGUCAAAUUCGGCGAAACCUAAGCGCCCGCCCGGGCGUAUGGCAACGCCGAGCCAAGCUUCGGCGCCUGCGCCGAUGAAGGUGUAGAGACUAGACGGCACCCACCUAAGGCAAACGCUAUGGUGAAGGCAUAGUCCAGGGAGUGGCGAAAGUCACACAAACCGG

variants of: B1; assay: reverse-splicing fitness (ratio to wild type); higher = more active; in vitro selection; Mg2+ level not given
Rule: met for reverse-splicing fitness not less than 0.009, not met for anything less.

Asked: Form field: reverse-splicing fitness at least 0.009? Entry: C82U A145C C150G C169G U176G
Given back: not met

Asked: Form field: reverse-splicing fitness at least 0.009? Entry: C82A A111G A120G A145C C150U U176C
Given back: met

Asked: Form field: reverse-splicing fitness at least 0.009? Entry: A111G A120C C169A
Given back: met

Asked: Form field: reverse-splicing fitness at least 0.009? Entry: C82G A111G A120G C150A C169A U176A
Given back: met

Asked: Form field: reverse-splicing fitness at least 0.009? Entry: A145G C150U U176A
Given back: met

Asked: Form field: reverse-splicing fitness at least 0.009? Entry: A111U A120C A145C U176A
Given back: met

Asked: Form field: reverse-splicing fitness at least 0.009? Entry: C82G A111C A120C A145U C150U C169A U176A
Given back: met

Asked: Form field: reverse-splicing fitness at least 0.009? Entry: C82U A145U C150U C169U U176C
Given back: met

Asked: Form field: reverse-splicing fitness at least 0.009? Entry: C82U A111C A120U C150U C169G U176A
Given back: not met

Asked: Form field: reverse-splicing fitness at least 0.009? Entry: A120G C150G C169G
Given back: met

Asked: Form field: reverse-splicing fitness at least 0.009? Entry: C82U A111U A120C A145C C150A C169G U176C
Given back: met

Asked: Form field: reverse-splicing fitness at least 0.009? Entry: C82G A111G A120U A145U C150A C169G
Given back: not met

Asked: Form field: reverse-splicing fitness at least 0.009? Entry: A111C A120C C150A U176C
Given back: met

Asked: Form field: reverse-splicing fitness at least 0.009? Entry: A111G A120C A145U C169A U176A
Given back: not met

Asked: Form field: reverse-splicing fitness at least 0.009? Entry: C82U A111C A120U A145G C150G
Given back: not met

Asked: Form field: reverse-splicing fitness at least 0.009? Entry: C82G A111U A145C C150U C169G U176G
Given back: not met

Asked: Form field: reverse-splicing fitness at least 0.009? Entry: C82G A111G A120G A145G C169U
Given back: met

Asked: Form field: reverse-splicing fitness at least 0.009? Entry: C82U A145U C150G C169G U176C
Given back: not met

Asked: Form field: reverse-splicing fitness at least 0.009? Entry: C82U A111C C150U C169G U176A
Given back: met

Asked: Form field: reverse-splicing fitness at least 0.009? Entry: C82G A111C A120G A145U C150G C169A U176G
Given back: not met

Asked: Form field: reverse-splicing fitness at least 0.009? Entry: A111G A120C A145U C150A C169A
Given back: not met

Asked: Form field: reverse-splicing fitness at least 0.009? Entry: C82A A120U C150G C169G U176A
Given back: not met

Asked: Form field: reverse-splicing fitness at least 0.009? Entry: A111C C150G
Given back: met

Asked: Form field: reverse-splicing fitness at least 0.009? Entry: C82A A111C A120C C169G
Given back: not met

Asked: Form field: reverse-splicing fitness at least 0.009? Entry: C82G A111C A120G A145U C150U C169U U176A
Given back: met

Asked: Form field: reverse-splicing fitness at least 0.009? Entry: C82G A111G A120G A145C U176A
Given back: met

Asked: Form field: reverse-splicing fitness at least 0.009? Entry: C82U A145U C150A U176C
Given back: met

Asked: Form field: reverse-splicing fitness at least 0.009? Entry: A111G A120G A145U C150G U176A
Given back: met

Asked: Form field: reverse-splicing fitness at least 0.009? Entry: C82G A120C A145U C169U
Given back: met

Asked: Form field: reverse-splicing fitness at least 0.009? Entry: C82A A111U A120U A145U C169A
Given back: not met

Asked: Form field: reverse-splicing fitness at least 0.009? Entry: A120C C150A C169G U176C
Given back: met

Asked: Form field: reverse-splicing fitness at least 0.009? Entry: C82G A111C A120C C150A U176G
Given back: not met

Asked: Form field: reverse-splicing fitness at least 0.009? Entry: C82A A111U A145U C150G C169U U176C
Given back: met

Asked: Form field: reverse-splicing fitness at least 0.009? Entry: C82G A120G A145U C150G U176A
Given back: not met

Asked: Form field: reverse-splicing fitness at least 0.009? Entry: A111G A120G A145C C150A C169G U176A
Given back: met

Asked: Form field: reverse-splicing fitness at least 0.009? Entry: C82U A111U A120C C169G U176C
Given back: met

Asked: Form field: reverse-splicing fitness at least 0.009? Entry: C82U A111U A120C A145C C169G U176G
Given back: not met

Asked: Form field: reverse-splicing fitness at least 0.009? Entry: C82U A111U A145G C169U U176G
Given back: not met

Asked: Form field: reverse-splicing fitness at least 0.009? Entry: A111C A120U A145C C150G C169U U176G
Given back: not met

Asked: Form field: reverse-splicing fitness at least 0.009? Entry: C82A A111U A120C A145G C150U C169G
Given back: met

Asked: Form field: reverse-splicing fitness at least 0.009? Entry: C82A A111G A120G A145U C150U U176A
Given back: met
